- System: SW-620
- Protocol Notes: NCI tumour cell line growth inhibition, 48 h
Calls of active or inactive are those of the source. Rule as the data show it: active = GI50 up to about 1.1 µM and inactive = higher.
One label from this list, please: YES = active, NO = inactive

# count of solved cases: 2
# Compound, Label
records = [
    ("CCc1cccc(C)c1NC(=S)NC(=O)c1ccccc1C(=O)NC(=S)Nc1c(C)cccc1CC", "NO"),
    ("C/C(=N\\NC(=S)N1CCC(C2CCN(C(=S)N/N=C(\\C)c3ccccn3)CC2)CC1)c1ccccn1", "NO"),
]

For `Cc1ccc2c3c(cnc2n1)C(=O)OCCN3C` , which call appears in the assay record?
NO

Moving on to N=C(N)NCCCC(NC(=O)c1c2ccccc2nc2ccccc12)C(=O)O (stereo not drawn)
NO

Let us now turn to `Cc1ccc(Nc2nc(=O)c3c4ccccc4n(C(=O)OC(C)(C)C)c3s2)cc1`
NO

Input `CCN(CC)/C(Sc1ccccc1)=C(\C(Cl)=C(Cl)Cl)[N+](=O)[O-]`
NO

Let us now turn to CCOC(=O)C1=C(C)N(NC(=O)Nc2ccccc2)C2(N)N(NC(=O)Nc3ccccc3)C(C)=C(C(=O)OCC)C12C(=O)OCC (stereo not drawn)
NO

Likewise for `CCOC(=O)/C(C#N)=C/c1ccc(CO)o1` ?
NO
